Data origin, for the record: patent US20140287989A1

Kindly supply the reported IC50 values for the records listed here.
Biological target: E. coli β clamp (β subunit of DNA polymerase III, dnaN gene product), N-tagged (E. coli)
Assay: SPR competition (Biacore 3000): β ring 0.25 µM mixed with the challenger, injected on immobilised P1
Give bare numbers, in µM.

1. P3 (RQLVLF) (peptide; other documents disagree on this pair); 8.62
2. P2 (RQLVLL) (peptide; other documents disagree on this pair); 21.5

Please turn your attention to the following entry.
Challenge: Would you please give the reported IC50 of P4 (RQLVFL) (peptide; other documents disagree on this pair) with E. coli β clamp (β subunit of DNA polymerase III, dnaN gene product), N-tagged (E. coli)?
Response given: 256
